B1: MNAT1 (parent)
chain: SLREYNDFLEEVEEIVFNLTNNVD

variants of: B1; test: protein stability index of a GFP-peptide fusion (GPS, HEK-293T) (PSI 1-6); higher = more stable; details: c terminus: a fixed tail appended;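 also: lentivirally expressed fusions sorted by FACS into six bins by GFP to DsRed ratio, PSI derived from sequencing read proportions per bin multiplied by bin number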
Documented protein stability index across a set of variants
QUANTITY_NAME: protein stability index

• SLREYNDFLEEVEEIVFVLTNNVD [N18V] = 2.32
• SLREYNDFREEVEEIVFNLTNNVD [L9R] = 3.83
• SLREYNDFLEEVEEIVFNLTNNVS [D24S] = 2.07
• SLREYNDFLEEVEEIVFNLTRNVD [N21R] = 1.95
• SLREYNDFLEEREEIVFNLTNNVD [V12R] = 4.19
• SLREYNDFLEEVEEAVFNLTNNVD [I15A] = 3.78
• SLREYNDFLEEVEEIVFNLWNNVD [T20W] = 2
• SLREYNDFLEEVEEIVFMLTNNVD [N18M] = 1.84
• SLREYNDFLEEHEEIVFNLTNNVD [V12H] = 3.48
• SLREYNDFLEEVEEIVFKLTNNVD [N18K] = 2.01
• SLREYNDFLEEVEEIVFNLTNNVK [D24K] = 1.81
• SLREYNDFLEEPEEIVFNLTNNVD [V12P] = 3.91
• SLREYNDFLEEVEEIVFNLTNEVD [N22E] = 2.38
• SLRESNDFLEEVEEIVFNLTNNVD [Y5S] = 4.29
• SLRFYNDFLEEVEEIVFNLTNNVD [E4F] = 2.34
• SLREYNDFLEEVEEIVFNLTNNED [V23E] = 2.82
• SLREYNDFLEEVEEIVFNLPNNVD [T20P] = 3.19
• SLRECNDFLEEVEEIVFNLTNNVD [Y5C] = 3.11
• SLREYIDFLEEVEEIVFNLTNNVD [N6I] = 2.63
• SLREYNDFLEEVEEIVFNLTNNFD [V23F] = 2.71
• SLREYNDFLEEVPEIVFNLTNNVD [E13P] = 3.69
